target: UniProtKB P08253; assay: MMP inhibition, internal fluorescence quenching method (MCA peptide substrate); assay type: biochemical; conditions: Protocol A: Tris/HCl pH 6.5, 37° C., MMP-2 19.2 picoM, substrate 3 μM; carboxylic acids; read-out: MMP-2 Ki
Sequence (P08253 110-660): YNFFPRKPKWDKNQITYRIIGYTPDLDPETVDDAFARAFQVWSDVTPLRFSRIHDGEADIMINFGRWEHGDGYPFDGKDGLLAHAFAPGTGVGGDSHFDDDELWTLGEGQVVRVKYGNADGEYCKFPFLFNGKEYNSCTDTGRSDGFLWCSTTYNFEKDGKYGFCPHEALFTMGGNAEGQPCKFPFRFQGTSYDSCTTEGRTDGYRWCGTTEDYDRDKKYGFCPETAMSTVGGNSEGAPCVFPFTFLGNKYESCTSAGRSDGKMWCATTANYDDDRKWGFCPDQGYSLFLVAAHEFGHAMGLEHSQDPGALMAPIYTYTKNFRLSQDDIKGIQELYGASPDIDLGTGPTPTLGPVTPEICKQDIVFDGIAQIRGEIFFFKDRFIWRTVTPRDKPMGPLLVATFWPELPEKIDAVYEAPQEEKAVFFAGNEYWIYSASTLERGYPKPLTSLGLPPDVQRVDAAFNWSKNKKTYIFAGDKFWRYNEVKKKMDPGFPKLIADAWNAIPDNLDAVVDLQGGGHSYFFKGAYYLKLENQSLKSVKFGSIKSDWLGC
pKi: −log10 of the molar value. Where a name gives a salt, the structure may show the parent alone.
recorded.metric: pKi

Completed entries (count: 3):
O=C(Nc1ccc(S(=O)(=O)CC(CSc2cccs2)C(=O)O)cc1)c1ccccc1 (stereo not drawn) ... 8.10
CCCCN1C(=O)CN(CC(CS(=O)(=O)c2ccc(-c3ccc(Cl)cc3)cc2)C(=O)O)C1=O (stereo not drawn) ... 8.11
O=C(O)C(COc1ccccc1CO)CS(=O)(=O)c1ccc(-c2ccc(Cl)cc2)cc1 (stereo not drawn) ... 7.82

I = N#Cc1ccc(-c2ccc(S(=O)(=O)CC(COc3ccccc3)C(=O)O)cc2)cc1 (stereo not drawn) [Example 29, sodium salt]
II = CN1C(=O)N(CC(CS(=O)(=O)c2ccc(-c3ccc(Cl)cc3)cc2)C(=O)O)C(=O)C1(C)C (single isomer, unassigned) [6, Isomer 2]
Ask: Task for the reader: decide whether I or II has the larger pKi. Please respond with the label that marks your chosen entry.
Result: I

P = O=C(O)C(CSc1ccc(O)cc1)CS(=O)(=O)c1ccc(-c2ccc(Cl)cc2)cc1 (stereo not drawn)
Q = O=C(O)C(CSc1ccccn1)CS(=O)(=O)c1ccc(-c2ccc(Cl)cc2)cc1 (stereo not drawn)
R = Cc1cc(SCC(CS(=O)(=O)c2ccc(-c3ccc(Cl)cc3)cc2)C(=O)O)nc(C)n1 (stereo not drawn)
Ask: Task field, ranking: reported pKi, descending order. Your reply should list the labels following the order given in the request.
Result: Q, P, R

I = O=C(O)C(CSc1ccccc1)CS(=O)(=O)c1ccc(-c2ccc(Cl)cc2)cc1 (racemic) [Example 1]
II = O=C(Nc1ccc(S(=O)(=O)CC(COc2ccccc2)C(=O)O)cc1)c1ccc(Cl)cc1 (stereo not drawn)
Ask: Task for the reader: decide whether I or II has the larger pKi. Please respond with the label that marks your chosen entry.
Result: II
(II: 8.62, I: 8.08)
